Data credit: patent US11254668B2

ASSAY_TARGET: JAK1 (Homo sapiens (Human), UniProt P23458)
Sequence (P23458 875-1153): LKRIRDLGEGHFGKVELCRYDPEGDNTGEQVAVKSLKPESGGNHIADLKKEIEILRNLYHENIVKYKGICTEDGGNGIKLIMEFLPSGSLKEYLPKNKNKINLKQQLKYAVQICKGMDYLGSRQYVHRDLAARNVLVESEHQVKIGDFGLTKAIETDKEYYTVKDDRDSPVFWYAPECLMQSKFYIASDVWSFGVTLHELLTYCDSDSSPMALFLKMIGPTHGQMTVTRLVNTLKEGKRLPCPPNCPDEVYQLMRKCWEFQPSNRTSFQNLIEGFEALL
METHOD_NOTES: JAK Caliper Enzyme Assay at 1 mM ATP, JAK1
Format: biochemical
I'd appreciate it if you could label each record using IC50 and these ranges: class A: < 0.3 µM; class B: ≥ 0.3 µM and < 3 µM; class C: ≥ 3 µM

| COMPOUND | CLASS_NAME |
| --- | --- |
| N#CC[C@]1(n2ncc(-c3cc(-c4ccc(F)cn4)cc4ncccc34)n2)C[C@@H](C#N)C1 [Example 347] | class B |
| CS(=O)(=O)Nc1cncc(-c2cc3ncccc3c(-c3ccn(C4(CC#N)CN(S(C)(=O)=O)C4)n3)n2)c1 [Example 204] | class C |
| Cn1cc(-c2cc(-c3cnn([C@]4(CC#N)C[C@@H](C#N)C4)n3)c3cccnc3c2)cn1 [Example 324] | class B |
| N#CC[C@]1(n2ncc(-c3cc(-c4cn[nH]c4)cc4ncccc34)n2)C[C@@H](C#N)C1 [Example 316] | class A |
| CS(=O)(=O)N1CC(CC#N)(n2ccc(-c3nc(-c4ccccc4CO)cc4ncccc34)n2)C1 [Example 255] | class C |
| N#CC[C@]1(n2ncc(-c3cc(-c4ccc(N)cn4)cc4ncccc34)n2)C[C@@H](C#N)C1 [Example 359] | class B |
| Cc1ncc(-c2cc3ncccc3c(-c3ccn(C4(CC#N)CN(S(C)(=O)=O)C4)n3)n2)cc1O [Example 222] | class C |
| CS(=O)(=O)N1CC(CC#N)(n2ccc(-c3nc(-c4ccn(C5COC5)n4)cc4ncccc34)n2)C1 [Example 56] | class C |
| N#CCC1(n2ccc(-c3nc(-c4cn(C5COC5)cn4)cc4ncccc34)n2)CN(CC(F)(F)F)C1 [Example 144] | class C |
| N#CC[C@]1(n2cc(-c3nc(-c4cnn(CCO)c4)cc4ncccc34)cn2)C[C@@H](C#N)C1 [Example 6] | class A |
| Cn1cc(-c2cc3ncccc3c(-c3ccn([C@]4(CC#N)C[C@H](C#N)C4)n3)n2)cn1 [Example 103] | class A |
| Cn1ccc(-c2cc(-c3cnn(C4(CC#N)CN(S(C)(=O)=O)C4)n3)c3cccnc3c2)n1 [Example 311] | class B |
| Cc1cc(-c2nc(-c3cc(N)n(C)n3)cc3ncccc23)nn1[C@]1(CC#N)C[C@@H](C#N)C1 [Example 270] | class C |
| CCn1cc(-c2cc3ncccc3c(-c3ccn(C4(CC#N)CN(CC(F)(F)F)C4)n3)n2)cn1 [Example 111] | class B |
| Cn1nc(-c2cc3ncccc3c(-c3ccn([C@]4(CC#N)C[C@](C)(C#N)C4)n3)n2)cc1N [Example 67] | class B |
| CS(=O)(=O)N1CC(CC#N)(n2cc(-c3cc(-c4cn[nH]c4)cc4ncccc34)cn2)C1 [Example 289] | class B |
| Cc1cc(-c2nc(-c3cn[nH]c3N)cc3ncccc23)nn1[C@]1(CC#N)C[C@@H](C#N)C1 [Example 275] | class A |
| N#CC[C@]1(n2ncc(-c3cc(-c4cnn(CCO)c4)cc4ncccc34)n2)C[C@H](C#N)C1 [Example 326] | class B |
| Cc1ccc(-c2cc3ncccc3c(-c3ccn(C4(CC#N)CN(S(C)(=O)=O)C4)n3)n2)cn1 [Example 175] | class C |
| CS(=O)(=O)N1CC(CC#N)(n2ccc(-c3nc(-c4cnc5cn[nH]c5c4)cc4ncccc34)n2)C1 [Example 166] | class C |
| N#CC[C@]1(n2ccc(-c3nc(-c4ccnc(C(N)=O)c4)cc4ncccc34)n2)C[C@H](C#N)C1 [Example 216] | class B |
| CO[C@H]1C[C@](CC#N)(n2ccc(-c3nc(-c4cc(CO)n[nH]4)cc4ncccc34)n2)C1 [Example 50] | class B |
| CS(=O)(=O)Nc1ccc(-c2cc3ncccc3c(-c3ccn([C@]4(CC#N)C[C@H](C#N)C4)n3)n2)cc1 [Example 257] | class A |
| N#CCC1(n2ncc(-c3cc(-c4cc[nH]n4)cc4ncccc34)n2)CN(CC2(F)CC2)C1 [Example 297] | class C |
| N#CCC1(n2ccc(-c3nc(-c4cnc5c(c4)CCC5)cc4ncccc34)n2)CN(CC(F)(F)F)C1 [Example 232] | class C |
| CS(=O)(=O)N1CC(CC#N)(n2ccc(-c3nc(-c4ccc(O)c(F)c4)cc4ncccc34)n2)C1 [Example 260] | class A |
| C[C@]1(C#N)C[C@](CC#N)(n2ccc(-c3nc(-c4ccnc(N)c4)cc4ncccc34)n2)C1 [Example 200] | class C |
| CS(=O)(=O)N1CC(CC#N)(n2ccc(-c3nc(-c4cc(F)ccc4O)cc4ncccc34)n2)C1 [Example 262] | class C |
